Reference source: patent US11352320B2

measurement.target: IDO1 (Homo sapiens, UniProt P14902)
Sequence (P14902 whole entry): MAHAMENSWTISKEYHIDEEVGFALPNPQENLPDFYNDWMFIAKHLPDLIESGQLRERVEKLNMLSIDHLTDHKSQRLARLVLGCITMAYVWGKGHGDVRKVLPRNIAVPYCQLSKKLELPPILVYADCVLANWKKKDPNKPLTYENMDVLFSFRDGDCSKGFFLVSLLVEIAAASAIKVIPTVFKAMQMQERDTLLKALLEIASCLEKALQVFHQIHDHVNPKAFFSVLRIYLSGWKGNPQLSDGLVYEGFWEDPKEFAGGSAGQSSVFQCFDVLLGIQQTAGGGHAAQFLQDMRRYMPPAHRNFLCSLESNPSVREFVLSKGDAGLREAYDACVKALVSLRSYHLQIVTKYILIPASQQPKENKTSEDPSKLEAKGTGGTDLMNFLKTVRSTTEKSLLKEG
measurement.notes: IDO1 Human Whole Blood Assay
Format: cell-based
condition.notes: LPS and IFNγ 100 ng/mL, 18 h, kynurenine by LC/MS/MS
pIC50: −log10 of the molar value. Counter-ions that a name gives are not always drawn.
recorded.endpoint: pIC50

{"molecule": "C[C@H](C(=O)Nc1ccc(F)cc1)C12CC(N(C)Cc3cccc(Cl)c3)(C1)C2 [Example 29, TFA]", "pIC50": 6.20}
{"molecule": "CC(C(=O)Nc1ccc(F)cc1)C12CC(Nc3ncnc4ccc(F)cc34)(C1)C2 (single isomer, unassigned)", "pIC50": 6.42}
{"molecule": "CC(C(=O)Nc1ccc(F)cc1)C12CC(Nc3ncnc4ccccc34)(C1)C2 (single isomer, unassigned)", "pIC50": 6.27}
